The following compounds are listed with their measured IC50 values.
- SYSTEM: human MRGPRX2 (Homo sapiens)
- Sequence (Q96LB1 1-330): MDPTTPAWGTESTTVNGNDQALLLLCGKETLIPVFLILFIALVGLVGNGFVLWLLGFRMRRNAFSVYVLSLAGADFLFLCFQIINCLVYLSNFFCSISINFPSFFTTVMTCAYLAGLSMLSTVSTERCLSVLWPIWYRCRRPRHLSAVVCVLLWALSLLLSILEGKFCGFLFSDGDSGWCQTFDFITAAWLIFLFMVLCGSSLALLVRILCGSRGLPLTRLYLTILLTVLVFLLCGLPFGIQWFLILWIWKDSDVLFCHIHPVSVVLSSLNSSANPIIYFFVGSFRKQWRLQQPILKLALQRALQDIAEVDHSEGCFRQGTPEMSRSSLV
- ASSAY_NAME: Ca2+ mobilization assay (FLIPR TETRA): inhibition of Cortistatin-14 mediated MRGPRX2 activation

[[record]]
compound = "C[C@@H](C(=O)Nc1ccc(Oc2ccc(F)cc2CN(C)C)cn1)N1CCC(F)(F)[C@@H](c2ccc(=O)[nH]c2)C1"
recorded_result = "100 to 3160 nM"

[[record]]
compound = "C[C@@H](C(=O)Nc1ccc(C(=O)OC2CCCC2)cn1)N1CCC(F)(F)[C@@H](c2ccc(=O)[nH]c2)C1"
recorded_result = "100 to 3160 nM"


Problem: Give IC50 for CC(C(=O)Nc1ccc(Oc2ccc(F)cc2)cn1)N1CCC(F)(F)C(c2ccc(=O)n(CCS(C)(=O)=O)c2)C1 (stereo not shown) tested on human MRGPRX2 (Homo sapiens).
Result: 10 to 100 nM

Problem: Give IC50 for C[C@@H](C(=O)Nc1ccc(OCC2CC2)cn1)N1CCC(F)(F)[C@@H](c2ccc(=O)n(C)c2)C1 tested on human MRGPRX2 (Homo sapiens).
Result: 10 to 100 nM

Problem: Give IC50 for C[C@@H](C(=O)Nc1ccc(Oc2ccc(F)cc2CO)cn1)N1CCC(F)(F)[C@@H](c2cc[n+]([O-])cc2)C1 tested on human MRGPRX2 (Homo sapiens).
Result: 10 to 100 nM

Problem: Give IC50 for C[C@@H](C(=O)Nc1ccc(Cc2ccncc2)cn1)N1CCC(F)(F)[C@@H](c2ccc(=O)[nH]c2)C1 tested on human MRGPRX2 (Homo sapiens).
Result: 10 to 100 nM

Problem: Give IC50 for C[C@@H](C(=O)Nc1ccc2ccccc2n1)N1CCC(F)(F)[C@@H](c2ccc(=O)[nH]c2)C1 tested on human MRGPRX2 (Homo sapiens).
Result: 100 to 3160 nM
